B1: glmS ribozyme (parent)
chain: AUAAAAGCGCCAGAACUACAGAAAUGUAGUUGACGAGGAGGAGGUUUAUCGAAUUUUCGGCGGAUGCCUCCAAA

# Variants of: B1
# Experiment Description: self-cleavage kobs at 2500 uM GlcN6P; higher = faster cleavage; RNA array
# Test Settings: with glucosamine-6-phosphate
This sample holds only a part of the variants without activity.
Quantity Measured: self-cleavage kobs at 2500 uM GlcN6P

The value of self-cleavage kobs at 2500 uM GlcN6P measured for the variant AUAAAAGUGCCAGAACUACAGAAAUGUAGUUCACGAGGAGGAGGUUUAUCGAAUUUUCGGCGGAUGCCUCCAAA [C8U G32C] turned out to be < 1e-05 s⁻¹

The value of self-cleavage kobs at 2500 uM GlcN6P measured for the variant AUAAAAGCGGCAGAACUACAGAAAUGUAGUUGACGAGGAGGAUGUUUAUCGAAUUUUCGGCGGAAGCCUCCAAA [C10G G43U U65A] turned out to be < 1e-05 s⁻¹

The value of self-cleavage kobs at 2500 uM GlcN6P measured for the variant AUAAAAGCGCCAGAACUACAGAAAUGUAGUUGACAAGGAGGAGGUUUAUCGAAUUUUCGGCGGAUGCCCCCAAA [G35A U69C] turned out to be < 1e-05 s⁻¹
